# System: β-D-glucuronidase (bovine liver)
# assay-explanation: Glycosidase inhibition, Table 7
# Type: biochemical
# protocol-conditions: 1 mg/mL aqueous solution added, 27 °C, run in water
quantity: β-D-Glucuronidase Bovine Liver, percentage inhibition

* OC[C@H](O)[C@@H]1[C@H](O)[C@H](O)CN1Cc1ccccc1 | −2.2%
* OB(O)c1ccc(CN2CC(O)C3OC(O)C(O)C32)cc1 (stereo not shown) | 1.1%
* N[C@@H](Cc1ccc(B(O)O)cc1)C(=O)O [^10B-BPA, reference compound] | −1%
* OC[C@H](O)[C@@H]1[C@H](O)[C@H](O)CN1Cc1ccc(B(O)O)cc1 | 2.4%
* CC1(C)O[C@H]2O[C@H]3[C@@H]([C@H]2O1)N(Cc1ccccc1)C[C@H]3O | −0.2%
* OC1O[C@@H]2[C@H]([C@H]1O)N(Cc1ccccc1)C[C@H]2O (stereo partly shown) | −4.3%
* N[C@@H](Cc1ccc(B(O)O)cc1)C(=O)O [BPA, 4-borono-L-phenylalanine, reference compound] | −0.7%

----------
# Test system: H460 lung carcinoma cells
# assay-explanation: Cancer screening, MTT growth inhibition
# Assay type: cell-based
# protocol-conditions: Homo sapiens, NCI-H460, 25 µM, 72-h exposure, read-out: H460 Lung Carcinoma, Percentage (%) Cell Growth Inhibition in response to 25 µM of Drug
Criterion: inhibition at 25 µM meeting or surpassing 7%. Met: 1 (yes). Not met: 0 (no).

• CC1(C)O[C@H]2O[C@H]3[C@@H]([C@H]2O1)N(Cc1ccc(B2OC(C)(C)C(C)(C)O2)cc1)C[C@H]3O = 1 (yes)
• OC[C@H](O)[C@@H]1[C@H](O)[C@H](O)CN1Cc1ccc(B(O)O)cc1 = 0 (no)
• OB(O)c1ccc(CN2CC(O)C3OC(O)C(O)C32)cc1 (stereo not shown) = 1 (yes)
• CC1(C)O[C@H]2O[C@H]3[C@@H]([C@H]2O1)N(Cc1ccccc1)C[C@H]3O = 1 (yes)
• OC[C@H](O)[C@@H]1[C@H](O)[C@H](O)CN1Cc1ccccc1 = 0 (no)
• OC1O[C@@H]2[C@H]([C@H]1O)N(Cc1ccccc1)C[C@H]2O (stereo partly shown) = 1 (yes)

----------
# Tested on: BE2-C neuroblastoma cells
# assay-explanation: Cancer screening, MTT growth inhibition
# Type: cell-based
# protocol-conditions: Homo sapiens, BE(2)-C, 72-h exposure, read-out: BE2-C Neuroblastoma, Percentage (%) Cell Growth Inhibition in response to 25 µM of Drug
# inhibition at 25 µM values compiled below
quantity: inhibition at 25 µM

- CC1(C)O[C@H]2O[C@H]3[C@@H]([C@H]2O1)N(Cc1ccccc1)C[C@H]3O: 10%
- N[C@@H](Cc1ccc(B(O)O)cc1)C(=O)O [BPA, 4-borono-L-phenylalanine, reference compound]: 13%
- OC1O[C@@H]2[C@H]([C@H]1O)N(Cc1ccccc1)C[C@H]2O (stereo partly shown): 12%
- CC1(C)O[C@H]2O[C@H]3[C@@H]([C@H]2O1)N(Cc1ccc(B2OC(C)(C)C(C)(C)O2)cc1)C[C@H]3O: 5%
